test: Water solubility; type: physicochemical; details: heading: Water solubility
METRIC_NAME: solubility (µg/mL)
Answer with a number only, understood to be in µg/mL.

solubility recorded for this compound, CCC1(C)OCCO1 [2-methyl-2-ethyl-1,3-dioxolane] , is 3260
